Conditions: in DMF, 308.15 K
reported endpoint: solubility (mole fraction)
Respond using a number only.

Fill in: solubility (mole fraction) of C1=Cc2ccccc2Nc2ccccc21 is ___
0.153

###

Conditions: in DMF, 298.15 K
reported endpoint: solubility (mole fraction)
Respond using a number only.

Fill in: solubility (mole fraction) of C1=Cc2ccccc2Nc2ccccc21 is ___
0.136

###

Details: in NMP, 323.15 K
reported endpoint: solubility (mole fraction)
Respond using a number only.

Fill in: solubility (mole fraction) of C1=Cc2ccccc2Nc2ccccc21 is ___
0.281

###

Conditions: in DMF, 278.15 K
reported endpoint: solubility (mole fraction)
Respond using a number only.

Fill in: solubility (mole fraction) of C1=Cc2ccccc2Nc2ccccc21 is ___
0.109

###

Conditions: in ethyl acetate, 303.15 K
reported endpoint: solubility (mole fraction)

Fill in: solubility (mole fraction) of C1=Cc2ccccc2Nc2ccccc21 is ___
0.0193

###

Conditions: in methyl acetate, 313.15 K
reported endpoint: solubility (mole fraction)
Respond using a number only.

Fill in: solubility (mole fraction) of C1=Cc2ccccc2Nc2ccccc21 is ___
0.0192

###

Details: in n-propyl acetate, 298.15 K
reported endpoint: solubility (mole fraction)
Respond using a number only.

Fill in: solubility (mole fraction) of C1=Cc2ccccc2Nc2ccccc21 is ___
0.0194

###

Settings: in methyl acetate, 303.15 K
reported endpoint: solubility (mole fraction)
Respond using a number only.

Fill in: solubility (mole fraction) of C1=Cc2ccccc2Nc2ccccc21 is ___
0.015

###

Conditions: in DMAc, 278.15 K
reported endpoint: solubility (mole fraction)
Respond using a number only.

Fill in: solubility (mole fraction) of C1=Cc2ccccc2Nc2ccccc21 is ___
0.113

###

Details: in n-butyl acetate, 308.15 K
reported endpoint: solubility (mole fraction)
Respond using a number only.

Fill in: solubility (mole fraction) of C1=Cc2ccccc2Nc2ccccc21 is ___
0.0261

###

Settings: in isopropyl acetate, 323.15 K
reported endpoint: solubility (mole fraction)
Respond using a number only.

Fill in: solubility (mole fraction) of C1=Cc2ccccc2Nc2ccccc21 is ___
0.0249

###

Conditions: in acetonitrile, 298.15 K
reported endpoint: solubility (mole fraction)
Respond using a number only.

Fill in: solubility (mole fraction) of C1=Cc2ccccc2Nc2ccccc21 is ___
0.00489

###

Details: in NMP, 283.15 K
reported endpoint: solubility (mole fraction)
Respond using a number only.

Fill in: solubility (mole fraction) of C1=Cc2ccccc2Nc2ccccc21 is ___
0.223

###

Conditions: in NMP, 298.15 K
reported endpoint: solubility (mole fraction)
Respond using a number only.

Fill in: solubility (mole fraction) of C1=Cc2ccccc2Nc2ccccc21 is ___
0.246

###

Details: in acetone, 323.15 K
reported endpoint: solubility (mole fraction)
Respond using a number only.

Fill in: solubility (mole fraction) of C1=Cc2ccccc2Nc2ccccc21 is ___
0.04

###

Settings: in n-propyl acetate, 323.15 K
reported endpoint: solubility (mole fraction)
Respond using a number only.

Fill in: solubility (mole fraction) of C1=Cc2ccccc2Nc2ccccc21 is ___
0.0331

###

Conditions: in DMAc, 288.15 K
reported endpoint: solubility (mole fraction)

Fill in: solubility (mole fraction) of C1=Cc2ccccc2Nc2ccccc21 is ___
0.13

###

Details: in DMF, 293.15 K
reported endpoint: solubility (mole fraction)
Respond using a number only.

Fill in: solubility (mole fraction) of C1=Cc2ccccc2Nc2ccccc21 is ___
0.129

All values here come from BigSolDB 2.1.
